The measured values listed here are drawn from paper PMC9352680.

Target: T1, PUF4 RNA-binding domain (Saccharomyces cerevisiae, UniProt P25339 537-888)
T1 sequence: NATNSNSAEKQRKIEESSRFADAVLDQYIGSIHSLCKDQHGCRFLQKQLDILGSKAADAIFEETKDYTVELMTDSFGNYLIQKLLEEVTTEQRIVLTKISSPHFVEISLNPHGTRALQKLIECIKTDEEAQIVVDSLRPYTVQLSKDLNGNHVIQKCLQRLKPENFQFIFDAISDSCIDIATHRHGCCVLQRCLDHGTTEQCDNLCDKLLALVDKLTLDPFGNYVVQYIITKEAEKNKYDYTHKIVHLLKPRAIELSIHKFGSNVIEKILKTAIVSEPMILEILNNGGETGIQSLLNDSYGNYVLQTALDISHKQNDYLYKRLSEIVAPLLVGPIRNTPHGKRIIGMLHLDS
Experiment: Mg; RNA-MaP; 20 mM Na-HEPES pH 7.4, 30 mM KOAc, 0.75 mM MgCl2, 0.1% Tween-20, 5% glycerol, 0.1 mg/mL BSA, 2 mM DTT; 25 C; 0.0125-409.6 nM protein
Conditions: tags: N-His6-TEV cleaved; C-SNAP kept, Cy3B-labelled; label: tethered on chip by stalled RNA polymerase
property name: pKd
# pKd = -log10(concentration in molar units)

Look up pKd: Id_ii_S2_P4E.2_K4.1_C4.2_[T-1C]_H4.1_A4.1_F4.1_T4.2 (ssRNA) RNA: UUUGAUUAAUAUGAUAUCGUUCUUUCUCCUGUAUAUUAGUUUCUUUCUCGAUAUCAUAUUAAUCUUU 9.78

Field request: pKd | item: UCUCUUUAUACAUAUCUCUU (ssRNA) [Ib_S1_P3E.1_K3.1_C3.1_H3.1_[G2A]_A3.1_[T5C]_F3.1_T3.1] 6.05

Please report the recorded pKd for Ic_S2_P4E.1_K4.1_C4.1_H4.1_A4.1_[T5A]_[A6C]_F4.1_[T8A]_[A9G]_T4.1 (ssRNA) RNA: UUUGAUUAAUAUGAUAUCGUUCUUUCUUGUAACUAGUUCUUUCUCGAUAUCAUAUUAAUCUUU . 6.02

Quick check: pKd of Ic_S2_P5E.1_K5.1_C5.1_H5.1_A5.1_[A7T]_F5.1_[A10T]_T5.1 (ssRNA) RNA: UUUGAUUAAUAUGAUAUCGUUCUUUCUUGUAUUUUUUUUCUUUCUCGAUAUCAUAUUAAUCUUU ? 7.74

Dear colleague, I am looking for the recorded pKd of the following binder: UCUCUUUGUAUCGUUAUCUCUU (ssRNA) [Ib_S1_P5E.1_K5.1_C5.1_H5.1_A5.1_[T6C]_[A7G]_F5.1_T5.1] 7.84

Quick check: pKd of Ic_S2_P5E.1_K5.1_C5.1_H5.1_A5.1_[T5A]_[T6C]_[A7T]_F5.1_[T8C]_[T9A]_T5.1 (ssRNA) RNA: UUUGAUUAAUAUGAUAUCGUUCUUUCUUGUAACUCAAUUCUUUCUCGAUAUCAUAUUAAUCUUU ? 5.98

Form field: reported pKd of Ic_S4_P3E.1_K3.1_C3.1_H3.1_A3.1_[T5C]_[A6C]_F3.1_[T7A]_[A8T]_T3.1 (ssRNA) RNA: UUUGACAACUGAUCGUUCUUUCUUGUACCAUUUCUUUCUCGAUCAGUUGUCUUU 8.29

Which pKd value is on record for Ic_S2_P4E.1_K4.1_C4.1_H4.1_A4.1_[T5G]_[A6C]_F4.1_[T8A]_[A9G]_T4.1 (ssRNA) RNA: UUUGAUUAAUAUGAUAUCGUUCUUUCUUGUAGCUAGUUCUUUCUCGAUAUCAUAUUAAUCUUU ? 6.07

Form field: reported pKd of UCUCUUCAUGUAUAUUACCUCUCUU (ssRNA) [Id_ii_S1_P4E.2_K4.1_C4.2_[T-1A]_H4.1_A4.1_F4.1_T4.2_[G10C]_[T11C]] 9.04

Suppose we examine the binder UCUCUUUGUAUCGCUUCUCUU (ssRNA) [Ic_S1_P4E.1_K4.1_C4.1_H4.1_A4.1_[A6C]_[T7G]_F4.1_[T8C]_[A9T]_T4.1] ; what pKd value has been reported? 6.17

Which pKd value belongs to Id_i_S2_P3E.3_K3.2_C3.2_[C-2T]_[T-1A]_H3.2_A3.1_F3.1_T3.2 (ssRNA) RNA: UUUGAUUAAUAUGAUAUCGUUCUUUCUUAUAUAUAUAUAUUCUUUCUCGAUAUCAUAUUAAUCUUU ? 6.25

Quick one: pKd for Ie_S2_P4E.1_K4.1_C4.1_H4.1_A4.1_[+5TTC]_F4.1_T4.1 (ssRNA) RNA: UUUGAUUAAUAUGAUAUCGUUCUUUCUUGUAUUUCAUUAUUCUUUCUCGAUAUCAUAUUAAUCUUU ? 7.52

So what does the record say about pKd for UCUCUUUGUAAUAUUGUCUCUU (ssRNA) [Ic_S1_P5E.1_K5.1_C5.1_H5.1_A5.1_[T5A]_F5.1_[A10G]_T5.1] ? 7.83

Which pKd value is on record for Id_ii_S2_P5E.2_K5.1_C5.2_[T-1C]_H5.1_A5.1_F5.1_T5.2_[T11A]_[A12T] (ssRNA) RNA: UUUGAUUAAUAUGAUAUCGUUCUUUCUCCUGUAUUAUUAAUUUCUUUCUCGAUAUCAUAUUAAUCUUU ? 8.84

Endpoint output: pKd of UCUCUUACUGUAUAUACAUCUCUU (ssRNA) [Id_ii_S1_P3E.2_K3.1_C3.2_[C-2A]_[T-1C]_H3.1_A3.1_F3.1_T3.2_[T9C]] . Value? 7.64

State the recorded pKd for this entry: UCUCUUUAUAUAUAUUAACUCUCUU (ssRNA) [Id_ii_S1_P4E.3_K4.2_C4.2_[C-2T]_[T-1A]_H4.2_A4.1_F4.1_T4.2_[G10A]_[T11C]] 7.80

Find the recorded pKd belonging to Ic_S4_P4E.1_K4.1_C4.1_H4.1_A4.1_[A6G]_F4.1_[T8C]_[A9T]_T4.1 (ssRNA) RNA: UUUGACAACUGAUCGUUCUUUCUUGUAUGUCUUUCUUUCUCGAUCAGUUGUCUUU and report it. 7.13

Endpoint output: pKd of ACAAACUUACACUAUAUAACAAAC (ssRNA) [Id_ii_S3_P3E.4_K3.3_C3.2_[C-2T]_H3.3_A3.1_F3.1_T3.2] . Value? 6.01

Entry UCUCUUUGUAUGUAGUCUCUU (ssRNA) [Ic_S1_P4E.1_K4.1_C4.1_H4.1_A4.1_[A6G]_F4.1_[T8A]_[A9G]_T4.1] has what pKd? 6.98
